Test system: Bacillus subtilis
Test: Minimal inhibitory concentration (MIC) determination
Assay type: cell-based
Details: Bacillus subtilis; B. subtilis ATCC23857, Muller-Hilton broth, 18 h to 24 h, 37° C.; read-out: MIC B. subtilis (ATCC23857)
Parameter Measured: MIC (µM)

| Molecule | Parameter Measured | Value |
| --- | --- | --- |
| O=C1/C(=N\Nc2nccs2)C(c2ccccc2)=NN1c1ccccc1 [Compound 7] | MIC | 0.25 |
| O=C1OC(c2ccc(Br)cc2)=C/C1=C/c1ccc([N+](=O)[O-])o1 [Compound 6] | MIC | 0.25 |
| C=C(CC=C(C)CCC=C(C)C)CCC(C)(C)C=CCCC(C)=CCOC(COP(=O)(O)OC1OC(C(N)=O)C(C)(O)C(OC(N)=O)C1OC1OC(COC2OC(CO)C(O)C(O)C2O)C(OC2OC(C)C(OC3OC(c4nc(C(=O)CCC(=O)O)nn4-c4ccc([N+](=O)[O-])c(C(=O)NCCN)c4)C(O)C(O)C3O)C(O)C2NC(C)=O)C(O)C1NC(C)=O)C(=O)O (stereo not shown) [Compound 2] | MIC | 2.5 |
| C/C(=C\c1ccc(C(=O)O)cc1)c1ccc2c(c1)C(C)(C)CCC2(C)C [Compound 8] | MIC | 4 |
